System: NCI-H520
Test Details: relative viability (nuclei count vs DMSO), 5 days (fraction); higher = more cells survive
Condition Set: first compound 4 µM
Assay Readout: relative viability
Answer field: number only, no words.

Cc1sc2c(c1C)C(c1ccc(Cl)cc1)=N[C@@H](CC(=O)OC(C)(C)C)c1nnc(C)n1-2 [JQ1] + N=C(N)NC(=N)NCCc1ccccc1 [Phenformin] (partner 250 µM) :: 0.321

Query: For the compound Cc1sc2c(c1C)C(c1ccc(Cl)cc1)=N[C@@H](CC(=O)OC(C)(C)C)c1nnc(C)n1-2 [JQ1] + Cc1cc(Nc2cc(N3CCN(C)CC3)nc(Sc3ccc(NC(=O)C4CC4)cc3)n2)n[nH]1 [Tozasertib] (partner 0.1 µM) , report relative viability.
Reply: 0.25

Query: Complete the entry with relative viability for Cc1sc2c(c1C)C(c1ccc(Cl)cc1)=N[C@@H](CC(=O)OC(C)(C)C)c1nnc(C)n1-2 [JQ1] + CC(=O)Nc1cccc(-n2c(=O)n(C3CC3)c(=O)c3c(Nc4ccc(I)cc4F)n(C)c(=O)c(C)c32)c1 [Trametinib] (partner 0.02 µM)
Reply: 0.239

Query: Look up relative viability of Cc1sc2c(c1C)C(c1ccc(Cl)cc1)=N[C@@H](CC(=O)OC(C)(C)C)c1nnc(C)n1-2 [JQ1] + Nc1ncn([C@H]2C[C@H](O)[C@@H](CO)O2)c(=O)n1 [Decitabine] (partner 2 µM) and report it.
Reply: 0.355

* * *

System: NCI-H1355
Test Details: relative viability (nuclei count vs DMSO), 5 days (fraction); higher = more cells survive
Condition Set: first compound 8 µM
So basically: is relative viability under 0.4? Then 1 (yes). Not under? Then 0 (no).

Sample answers from the record:
O=c1[nH]c2ccccc2n1C1CCN(CCCC(c2ccc(F)cc2)c2ccc(F)cc2)CC1 [Pimozide] + O=C(CCCCCCC(=O)Nc1ccccc1)NO [Vorinostat] (partner 1 µM) :: 0 (no)
O=c1[nH]c2ccccc2n1C1CCN(CCCC(c2ccc(F)cc2)c2ccc(F)cc2)CC1 [Pimozide] + Nc1ncn([C@H]2C[C@H](O)[C@@H](CO)O2)c(=O)n1 [Decitabine] (partner 2 µM) :: 1 (yes)
O=c1[nH]c2ccccc2n1C1CCN(CCCC(c2ccc(F)cc2)c2ccc(F)cc2)CC1 [Pimozide] + CS(=O)(=O)N1CCN(Cc2cc3nc(-c4cccc5[nH]ncc45)nc(N4CCOCC4)c3s2)CC1 [Pictilisib] (partner 1 µM) :: 1 (yes)

Query: Below 0.4 on relative viability? Entry O=c1[nH]c2ccccc2n1C1CCN(CCCC(c2ccc(F)cc2)c2ccc(F)cc2)CC1 [Pimozide] + CC(C)C[C@H](NC(=O)[C@H](Cc1ccccc1)NC(=O)c1cnccn1)B(O)O [Bortezomib] (partner 0.002 µM)
Reply: 0 (no)

* * *

Tested on: EKVX
Test Details: relative viability (nuclei count vs DMSO), 5 days (fraction); higher = more cells survive
Condition Set: first compound 50 µM
Assay Readout: relative viability

O=C(O)CCCCC(CCSCc1ccccc1)SCc1ccccc1 (configuration not stated) [CPI-613] + Cc1nc(Nc2ncc(C(=O)Nc3c(C)cccc3Cl)s2)cc(N2CCN(CCO)CC2)n1 [Dasatinib] (partner 0.075 µM) :: 0.565
O=C(O)CCCCC(CCSCc1ccccc1)SCc1ccccc1 (configuration not stated) [CPI-613] + Cc1cc(Nc2cc(N3CCN(C)CC3)nc(Sc3ccc(NC(=O)C4CC4)cc3)n2)n[nH]1 [Tozasertib] (partner 0.1 µM) :: 0.366
O=C(O)CCCCC(CCSCc1ccccc1)SCc1ccccc1 (configuration not stated) [CPI-613] + O=C(CCCCCCC(=O)Nc1ccccc1)NO [Vorinostat] (partner 1 µM) :: 0.637
O=C(O)CCCCC(CCSCc1ccccc1)SCc1ccccc1 (configuration not stated) [CPI-613] + CC(=O)Nc1cccc(-n2c(=O)n(C3CC3)c(=O)c3c(Nc4ccc(I)cc4F)n(C)c(=O)c(C)c32)c1 [Trametinib] (partner 0.02 µM) :: 0.343
O=C(O)CCCCC(CCSCc1ccccc1)SCc1ccccc1 (configuration not stated) [CPI-613] + NC(=O)Nc1cc(-c2cccc(F)c2)sc1C(=O)N[C@H]1CCCNC1 [AZD7762] (partner 0.2 µM) :: 0.505
O=C(O)CCCCC(CCSCc1ccccc1)SCc1ccccc1 (configuration not stated) [CPI-613] + CC(C)C[C@H](NC(=O)[C@H](Cc1ccccc1)NC(=O)c1cnccn1)B(O)O [Bortezomib] (partner 0.002 µM) :: 1.05

API: the following record is the query input.
Query: Note down relative viability recorded for O=C(O)CCCCC(CCSCc1ccccc1)SCc1ccccc1 (configuration not stated) [CPI-613] + Nc1ncn([C@H]2C[C@H](O)[C@@H](CO)O2)c(=O)n1 [Decitabine] (partner 2 µM)
Reply: 0.423

* * *

relative viability values by entry
Test system: NCI-H647
Test Details: relative viability (nuclei count vs DMSO), 5 days (fraction); higher = more cells survive
Condition Set: first compound 0.05 µM
Hey, just send me the number, nothing else.

A selection of reference data follows.
COc1cc2nccc(Oc3ccc(NC(=O)Nc4cc(C)on4)c(Cl)c3)c2cc1OC [Tivozanib] + CCNC(=O)c1noc(-c2cc(C(C)C)c(O)cc2O)c1-c1ccc(CN2CCOCC2)cc1 [Luminespib] (partner 0.01 µM) :: 0.401
COc1cc2nccc(Oc3ccc(NC(=O)Nc4cc(C)on4)c(Cl)c3)c2cc1OC [Tivozanib] + C[C@@H](Oc1cc(-c2cnn(C3CCNCC3)c2)cnc1N)c1c(Cl)ccc(F)c1Cl [Crizotinib] (partner 1 µM) :: 1.13
Nc1ccn([C@@H]2O[C@H](CO)[C@@H](O)[C@@H]2O)c(=O)n1 [Cytarabine] + COc1cccc2cc(-c3nc([C@H]4CC[C@H](C(=O)O)CC4)n4ncnc(N)c34)[nH]c12 [OSI-027] (partner 0.5 µM) :: 0.271
Nc1ccn([C@@H]2O[C@H](CO)[C@@H](O)[C@@H]2O)c(=O)n1 [Cytarabine] + CC(=O)c1c(C)c2cnc(Nc3ccc(N4CCNCC4)cn3)nc2n(C2CCCC2)c1=O [Palbociclib] (partner 0.5 µM) :: 0.207

Query: Please report the measured relative viability for COc1cc2nccc(Oc3ccc(NC(=O)Nc4cc(C)on4)c(Cl)c3)c2cc1OC [Tivozanib] + N=C(N)NC(=N)NCCc1ccccc1 [Phenformin] (partner 250 µM) tested on NCI-H647.
Reply: 0.473

* * *

Recorded measurements of relative viability, one per entry
Test system: HCC-827
Test Details: relative viability (nuclei count vs DMSO), 5 days (fraction); higher = more cells survive
Condition Set: first compound 0.01581 µM
The answer should be written as a number, with no unit following it.

Study these solved cases before continuing.
COc1cc2nccc(Oc3ccc(NC(=O)Nc4cc(C)on4)c(Cl)c3)c2cc1OC [Tivozanib] + C[C@]1(O)C[C@@H](c2nc(-c3ccc4ccc(-c5ccccc5)nc4c3)c3c(N)nccn32)C1 [Linsitinib] (partner 1 µM) :: 0.942
COc1cc2nccc(Oc3ccc(NC(=O)Nc4cc(C)on4)c(Cl)c3)c2cc1OC [Tivozanib] + COc1cc2c(Oc3ccc(NC(=O)C4(C(=O)Nc5ccc(F)cc5)CC4)cc3F)ccnc2cc1OCCCN1CCOCC1 [Foretinib] (partner 0.25 µM) :: 1.09
COc1cc2nccc(Oc3ccc(NC(=O)Nc4cc(C)on4)c(Cl)c3)c2cc1OC [Tivozanib] + CC(=O)Nc1cccc(-n2c(=O)n(C3CC3)c(=O)c3c(Nc4ccc(I)cc4F)n(C)c(=O)c(C)c32)c1 [Trametinib] (partner 0.02 µM) :: 0.543

Field: next molecule
Query: Please supply the value of reported relative viability for the item COc1cc2nccc(Oc3ccc(NC(=O)Nc4cc(C)on4)c(Cl)c3)c2cc1OC [Tivozanib] + Cc1nc(NC(=O)N2CCC[C@H]2C(N)=O)sc1-c1ccnc(C(C)(C)C(F)(F)F)c1 [Alpelisib] (partner 2 µM)
Reply: 0.992

* * *

System: NCI-H2085
Test Details: relative viability (nuclei count vs DMSO), 5 days (fraction); higher = more cells survive
Condition Set: first compound 8 µM
This section presents compounds with their documented relative viability values.
Format: numeric value only, no unit, no commentary.

Consider the following illustrative entries.
O=c1[nH]c2ccccc2n1C1CCN(CCCC(c2ccc(F)cc2)c2ccc(F)cc2)CC1 [Pimozide] + Nc1nc2[nH]cc(CCc3ccc(C(=O)N[C@@H](CCC(=O)O)C(=O)O)cc3)c2c(=O)[nH]1 [Pemetrexed] (partner 0.2 µM) :: 0.735
O=c1[nH]c2ccccc2n1C1CCN(CCCC(c2ccc(F)cc2)c2ccc(F)cc2)CC1 [Pimozide] + CC1(C)CCC(c2ccc(Cl)cc2)=C(CN2CCN(c3ccc(C(=O)NS(=O)(=O)c4ccc(N[C@H](CCN5CCOCC5)CSc5ccccc5)c(S(=O)(=O)C(F)(F)F)c4)cc3)CC2)C1 [Navitoclax] (partner 0.5 µM) :: 1.06

Query: Assign relative viability to the following record: O=c1[nH]c2ccccc2n1C1CCN(CCCC(c2ccc(F)cc2)c2ccc(F)cc2)CC1 [Pimozide] + O=C(CCCCCCC(=O)Nc1ccccc1)NO [Vorinostat] (partner 1 µM)
Reply: 0.741

The measurements presented in this section are drawn from the supplement of paper PMC10307832.
